Values were extracted from the supplement of paper PMC11208160.

experiment: recombinant barcode read abundance after kanamycin selection (control-corrected) (log10(CPM+1)); higher = more efficient recombination; sequences stand for … in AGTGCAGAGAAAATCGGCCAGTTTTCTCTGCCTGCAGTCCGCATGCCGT…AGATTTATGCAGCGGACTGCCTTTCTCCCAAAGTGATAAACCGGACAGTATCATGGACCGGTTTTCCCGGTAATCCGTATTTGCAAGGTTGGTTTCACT; site = the 11-nt target
READOUT LABEL: recombinant barcode read abundance (log10)
Numbers only.

>  <SEQUENCE RECORD>
ACTCGTCCTTGGGTTCTAACCTGTTGCTA (site ACTCGTCCTTA)

>  <OBSERVED VALUE>
0.584

$$$$
>  <SEQUENCE RECORD>
CTCGATACTTGGGTTCTAACCTGTTGCTT (site CTCGCTACTAA)

>  <OBSERVED VALUE>
0.096

$$$$
>  <SEQUENCE RECORD>
TACAGACCTTGGGTTCTAACCTGTTGCCT (site GACAGACCTAG)

>  <OBSERVED VALUE>
0.065

$$$$

Value sought for every listed sequence: recombinant barcode read abundance (log10).
1. TCGGCCTCTTGGGTTCTAACCTGTTGCTA (site CGTCTAGCTAT)
2. TCTGACTCTTGGGTTCTAACCTGTTGCAT (site TCTGACTCTAT)
3. TAGTGGCCTTGGGTTCTAACCTGTTGCTA (site TAGTGGCCTTA)
4. GGTGCTCCTTGGGTTCTAACCTGTTGCAT (site GGTGCTCCTCT)
5. GAGTATTCTTGGGTTCTAACCTGTTGCCT (site GAGTATTCTAG)

1. 0.054
2. 1.59
3. 0.132
4. 0.017
5. 1.16

Provide each entry's recombinant barcode read abundance (log10) from the list below.
1. TATAATTCTTGGGTTCTAACCTGTTGCTT (site TTCAATTCTAA)
2. AATAACTCTTGGGTTCTAACCTGTTGCCT (site CATAACTCTAG)
3. ACTGATCCTTGGGTTCTAACCTGTTGCCT (site ACTGATCCTAG)
4. GAGAGCACTTGGGTTCTAACCTGTTGCCT (site GAGAGCACTAG)
5. AGGCCCACTTGGGTTCTAACCTGTTGCAT (site AGGCCCACTAT)
6. CTCAAAGCTTGGGTTCTAACCTGTTGCCG (site TAGTCCACTGC)
7. CCGTAGCCTTGGGTTCTAACCTGTTGCCT (site CCGAAGCCTAG)
8. GAGAGCACTTGGGTTCTAACCTGTTGCCT (site CAGAGCACTAG)

1: 0.146; 2: 0.0701; 3: 2.1; 4: 1.4; 5: 2.12; 6: 0.196; 7: 0.129; 8: 0.603

Below is a list of sequences. For each, state its recorded recombinant barcode read abundance (log10).
1. GTGAGAACTTGGGTTCTAACCTGTTGCCA (site CGTGACCCTCC)
2. GTAGACCCTTGGGTTCTAACCTGTTGCGT (site GTAGACCCTAC)
3. TCGGAGTCTTGGGTTCTAACCTGTTGCCT (site TCGGAGTCTAG)
4. GCCAAACCTTGGGTTCTAACCTGTTGCCT (site GCCAAACCTAG)
5. CGTGTAACTTGGGTTCTAACCTGTTGCCT (site CGTATATCTAG)

[0.0895, 3.46, 2.23, 0.0479, 0.13]

* * *

experiment: recombinant UMI read abundance after kanamycin selection (control-corrected) (log10(CPM+1)); higher = more efficient recombination; extreme values may be limits of the assay; sequences stand for … in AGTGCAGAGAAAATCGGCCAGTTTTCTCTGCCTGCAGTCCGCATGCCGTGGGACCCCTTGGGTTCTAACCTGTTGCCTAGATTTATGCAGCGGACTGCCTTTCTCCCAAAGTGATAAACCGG…AGGTTGGTTTCACT; site = the 11-nt donor
Is recombinant UMI read abundance (log10) at least 0.2? Then TRUE. If not, FALSE.

Reference set (8 entries):
>  <SEQUENCE RECORD>
CGAGGAGCATGGACCGGTTTTCCCGGTAATCCGTATTTGGG (site CGAGGAACTCC)

>  <CLASS>
TRUE

$$$$
>  <SEQUENCE RECORD>
CGGCCAACATGGACCGGTTTTCCCGGTAATCCGTATTTGTC (site CGGCCAACTGA)

>  <CLASS>
TRUE

$$$$
>  <SEQUENCE RECORD>
CATTAGACATGGACCGGTTTTCCCGGTAATCCGTATTTGAG (site CTTTAGACTCT)

>  <CLASS>
FALSE

$$$$
>  <SEQUENCE RECORD>
GACTGGACATGGACCGGTTTTCCCGGTAATCCGTATTTGAC (site GAGTGGACTGT)

>  <CLASS>
TRUE

$$$$
>  <SEQUENCE RECORD>
AGGAAGACATGGACCGGTTTTCCCGGTAATCCGTATTTGCA (site AGTAGGACTTG)

>  <CLASS>
TRUE

$$$$
>  <SEQUENCE RECORD>
CACTGTACATGGACCGGTTTTCCCGGTAATCCGTATTTGCG (site CACTGTACTCG)

>  <CLASS>
TRUE

$$$$
>  <SEQUENCE RECORD>
TGGGAGTCATGGACCGGTTTTCCCGGTAATCCGTATTTGCC (site AGGGAGTCTGG)

>  <CLASS>
FALSE

$$$$
>  <SEQUENCE RECORD>
ACATGATCATGGACCGGTTTTCCCGGTAATCCGTATTTGCA (site ACAGTATCTTG)

>  <CLASS>
TRUE

$$$$

API: above_or_equal(metric=recombinant UMI read abundance (log10), cutoff=0.2) for item GTTAGAACATGGACCGGTTTTCCCGGTAATCCGTATTTGGG (site GTTAGAACTCC) FALSE

Determine whether measured recombinant UMI read abundance (log10) meets or exceeds 0.2 for TTGGTTCCATGGACCGGTTTTCCCGGTAATCCGTATTTGTG (site TTGGTTCCTCA) FALSE

Please tell me: is the sequence CTCTACACATGGACCGGTTTTCCCGGTAATCCGTATTTGCT (site CTCTAAACTAG) at or over 0.2 in terms of recombinant UMI read abundance (log10)? FALSE

Does recombinant UMI read abundance (log10) meet or surpass 0.2 for CCCGGTCCATGGACCGGTTTTCCCGGTAATCCGTATTTGCA (site CCCGGTTCTTG) ? FALSE

Could you verify whether the entry GGTGTTTCATGGACCGGTTTTCCCGGTAATCCGTATTTGGT (site GGTGTTTCTAC) shows recombinant UMI read abundance (log10) of no less than 0.2? TRUE

Could you tell me if the measured recombinant UMI read abundance (log10) of ATTTAGTCATGGACCGGTTTTCCCGGTAATCCGTATTTGTT (site CACATCCCTTC) reaches 0.2 or more? FALSE

Please check the record ACGGGCACATGGACCGGTTTTCCCGGTAATCCGTATTTGGT (site ACGGGCACTAC) and state if its recombinant UMI read abundance (log10) is at or above 0.2. TRUE

Reported recombinant UMI read abundance (log10) reaches at least 0.2 for CACTCTTCATGGACCGGTTTTCCCGGTAATCCGTATTTGCC (site CACTCCTCTGG) ? TRUE

Please tell me: is the sequence CCTAATACATGGACCGGTTTTCCCGGTAATCCGTATTTGCC (site CCTAATACTGC) at or over 0.2 in terms of recombinant UMI read abundance (log10)? FALSE

Does the reported recombinant UMI read abundance (log10) for TTCAATTCATGGACCGGTTTTCCCGGTAATCCGTATTTGGG (site TTCAATTCTCC) fall at or above the 0.2 mark? FALSE

* * *

assay: recombinant UMI read abundance after kanamycin selection (control-corrected) (log10(CPM+1)); higher = more efficient recombination; extreme values may be limits of the assay; sequences stand for … in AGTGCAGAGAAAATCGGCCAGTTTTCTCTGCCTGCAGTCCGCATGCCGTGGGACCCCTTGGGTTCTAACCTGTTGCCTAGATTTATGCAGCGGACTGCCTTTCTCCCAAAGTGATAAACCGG…AGGTTGGTTTCACT; site = the 11-nt donor
READOUT LABEL: recombinant UMI read abundance (log10)
Answers are plain numbers.

Previously resolved entries follow.
>  <SEQUENCE RECORD>
CCCCACTCATGGACCGGTTTTCCCGGTAATCCGTATTTGTA (site CCCCACCCTTA)

>  <OBSERVED VALUE>
0.00571

$$$$
>  <SEQUENCE RECORD>
CTCTCATCATGGACCGGTTTTCCCGGTAATCCGTATTTGCT (site CGATCATCTAG)

>  <OBSERVED VALUE>
0

$$$$
>  <SEQUENCE RECORD>
AGACATCCATGGACCGGTTTTCCCGGTAATCCGTATTTGAC (site AAACATCCTGT)

>  <OBSERVED VALUE>
0

$$$$
>  <SEQUENCE RECORD>
CCCCACACATGGACCGGTTTTCCCGGTAATCCGTATTTGTG (site CCCCACACTTA)

>  <OBSERVED VALUE>
0.0257

$$$$
>  <SEQUENCE RECORD>
CCCACATCATGGACCGGTTTTCCCGGTAATCCGTATTTGTC (site CCCAGATCTGA)

>  <OBSERVED VALUE>
0

$$$$
>  <SEQUENCE RECORD>
ATAAGTCCATGGACCGGTTTTCCCGGTAATCCGTATTTGAC (site ATAAGACCTGT)

>  <OBSERVED VALUE>
0

$$$$
>  <SEQUENCE RECORD>
ATCTAGACATGGACCGGTTTTCCCGGTAATCCGTATTTGAC (site ATCTATACTGT)

>  <OBSERVED VALUE>
0

$$$$
>  <SEQUENCE RECORD>
CTCCCTACATGGACCGGTTTTCCCGGTAATCCGTATTTGAG (site CTGCCTACTCT)

>  <OBSERVED VALUE>
0.0259

$$$$
>  <SEQUENCE RECORD>
AATAATGCATGGACCGGTTTTCCCGGTAATCCGTATTTGGA (site AATCATGCTTC)

>  <OBSERVED VALUE>
0.217

$$$$
>  <SEQUENCE RECORD>
CTTCTAACATGGACCGGTTTTCCCGGTAATCCGTATTTGGA (site CTACTAACTTC)

>  <OBSERVED VALUE>
0.0127

$$$$

Could I get recombinant UMI read abundance (log10) for every one of these entries?
1. GGCCACCCATGGACCGGTTTTCCCGGTAATCCGTATTTGTT (site GGCCTCCCTAA)
2. TTAGGATCATGGACCGGTTTTCCCGGTAATCCGTATTTGAT (site TTAGGATCTAT)
3. CGCAATCCATGGACCGGTTTTCCCGGTAATCCGTATTTGAA (site GGCAATCCTTT)
4. GCACTTTCATGGACCGGTTTTCCCGGTAATCCGTATTTGGG (site GCACTTTCTCC)
5. GATCAGACATGGACCGGTTTTCCCGGTAATCCGTATTTGAA (site GATCAGACTTT)

0.0064
2.58
0.00324
2.31
0.431
